# System Under Test: cIAP2-BIR3 (Homo sapiens (Human), UniProt Q13489)
# Sequence (Q13489 238-349): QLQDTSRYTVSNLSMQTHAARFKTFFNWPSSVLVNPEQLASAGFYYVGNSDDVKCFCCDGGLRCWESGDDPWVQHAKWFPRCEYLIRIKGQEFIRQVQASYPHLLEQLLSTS
# Assay Protocol: BIR binding assay (FRET competition), cIAP2 BIR3
Property Name: IC50

[[record]]
compound = "C[C@@H]1CN(CC(=O)N2CC(C)(C)c3[nH]c(=O)c(Cc4ccc(F)cc4)cc32)[C@@H](CN2CCO[C@H](C(=O)N[C@H]3CC[C@H](NC(=O)[C@@H]4CN(C[C@H]5CN[C@H](C)CN5CC(=O)N5CC(C)(C)c6[nH]c(=O)c(Cc7ccc(F)cc7)cc65)CCO4)CC3)C2)CN1 [Example 92]"
result = "7.94 to 15.8 nM"

[[record]]
compound = "C[C@@H]1CN(CC(=O)N2CC(C)(C)c3[nH]c(=O)c(Cc4ccc(F)cc4)cc32)[C@@H](CN2CCO[C@H](COc3ccccc3OC[C@@H]3CN(C[C@H]4CN[C@H](C)CN4CC(=O)N4CC(C)(C)c5[nH]c(=O)c(Cc6ccc(F)cc6)cc54)CCO3)C2)CN1 [Example 71]"
result = "7.94 to 15.8 nM"

